- test.target: Calmodulin-1 (Homo sapiens)
- test.name: calcium-bound CALM1 binders on microarrays, profiling panel, artefact control for SMM control-protein annotation, biochemical, small-molecule microarray, Cy5-labelled CALM1, plus calcium (AID 1112);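 further: score merges spot fluorescence with signal to noise from triplicate slides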
- study.conditions: Cy5-CALM1 binding fluorescence, higher = more signal
Provide the recorded composite z-score for the entries that follow.
One number for each entry.

Look at each compound and report its composite z-score.
1. CCOC(=O)[C@H](Cc1ccccc1)NC(=O)CCC1CC(OC(=O)NCCc2ccc(F)cc2)CC2(CCCC(COC(=O)NCCOC)O2)O1 (stereo not given in full)
2. CC(C)[C@@H](OCc1ccccc1)[C@H](C)C=NOC[C@@H](O)COCc1ccco1
3. COC(=O)C1=C(C)N(Cc2ccccc2)[C@]23O[C@](C(=O)OC)(C(=O)N2[C@@H]1c1ccccc1)C(C(=O)OC)=C3C(=O)OC
4. C[C@@H]1C=CCC(=O)OC[C@H]2O[C@@H](C=C[C@@H]2O)[C@H](C)C=CCC(=O)OC1
5. C[C@H]1CC[C@H]2C(=O)O[C@H](COc3ccc(C(C)(C)C)cc3)CN2[C@@H]1c1ccc(Br)cc1

Reply |
1: -0.109; 2: -1.81; 3: -1.19; 4: -2.47; 5: 0.101

---

- test.name: basal HepG2 mitochondrial membrane potential changes, profiling panel, cell-based, JC-1 fluorescence, 24 h, 100 nL compound (AID 1167); further: test concentration not given here
- study.conditions: higher = more signal
Binary call on z-score: true from -0.3 upward, false beneath that.

# example entries with known answers
* COC(=O)[C@H]1O[C@@H](c2c(OC)c(OC)c(C)c(OC)c2OC)[C@H](C)[C@@H](O)[C@H]1C | true
* COC(=O)[C@@H]1CC[C@H](C)[C@@H](c2ccc(C)cc2)N1C(=O)c1ccc(C=NO[C@H](C)c2cn([C@@H]3COC[C@H]3O)nn2)cc1 | false
* COCCNC(=O)OCC1CCCC2(CC(OC(=O)NCc3ccc4c(c3)OCO4)CC(CCC(=O)N[C@@H](C)C(=O)OC)O2)O1 (stereo not given in full) | false
* COC(=O)CC=C[C@@H](C)[C@@H](C=NOC[C@@H](O)[C@H]1O[C@@H]2OC(C)(C)O[C@@H]2[C@H]1O)NS(=O)(=O)c1ccc(C)cc1 | true
* COCOc1ccc(Br)cc1C(=O)[C@@H]1O[C@H]1c1cccc(OC)c1 | false

Ask | Quick check: does CCOC(=O)[C@H](Cc1ccccc1)NC(=O)CCC1CC(OC(=O)NCc2ccc3c(c2)OCO3)CC2(CCCC(COC(=O)NCCC(C)C)O2)O1 (stereo not given in full) have z-score greater than or equal to -0.3?
Reply | true

Ask | Quick check: does O=C1OCCC=C1C(O)CCc1ccccc1 (stereo not given) have z-score greater than or equal to -0.3?
Reply | false

Ask | Quick check: does `CON=C(C)CCC(=O)OC[C@H]1O[C@H](c2ccccc2)C=C[C@@H]1Oc1ccc(OC)cc1` have z-score greater than or equal to -0.3?
Reply | false

---

- test.name: small-molecule microarray binders of probe aWnt5a, primary screen, biochemical, biotinylated probe, 635/667 nm fluorescence (AID 1113);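 further: score merges 667 nm fluorescence intensity with signal-to-noise per printed feature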
- study.conditions: higher = more signal
reported.property: composite z-score
Numbers only.

Example entries begin here.
- CCOC(=O)[C@H](CC(C)C)NC(=O)CCC1CC(OC(=O)NCCc2ccc(F)cc2)CC2(CCCC(COC(=O)NCC(c3ccccc3)c3ccccc3)O2)O1 (some centres undefined): -0.152
- CCOC(=O)[C@H](Cc1ccccc1)NC(=O)CCC1CC(OC(=O)NCc2cccc3ccccc23)CC2(CCCC(COC(=O)NCc3ccccc3)O2)O1 (some centres undefined): -0.2
- CCN1C(=O)[C@H]2[C@H]3[C@H](O)[C@H](O)CC(=O)[C@H]3CC[C@H]2C1=O: -0.0472

Look at each molecule and report its composite z-score.
1. C[C@@H]1C=CCC(=O)OC[C@H]2O[C@@H](C=C[C@@H]2O)[C@H](C)C=CCC(=O)OC1
2. CC(C)=CCCC(C)=CCON=C1C[C@@H](O)[C@@H](O)[C@@H]2[C@@H]3C(=O)N(C(C)(C)C)C(=O)[C@@H]3CC[C@H]12
3. COC(=O)[C@@H]1CC[C@H](C)[C@@H](c2ccc(C)cc2)N1C(=O)c1ccc(C=NO[C@@H]2O[C@H](COC(C)=O)[C@@H](OC(C)=O)[C@H](OC(C)=O)[C@H]2OC(C)=O)cc1
4. CO[C@H]1COC(=O)CC=C[C@@H](C)[C@H](OC)COC(=O)CCC[C@@H]1C

Reply |
-0.359
-0.118
-0.124
-0.0751

Look at each molecule and report its composite z-score.
1. C[C@@H]1CC[C@H]2C(=O)O[C@@H](COc3ccc(C(C)(C)C)cc3)CN2[C@@H]1c1ccc(Br)cc1
2. CCc1cc2c(nc1CC)CCN(CCC(C)=NO[C@H](C)c1cn([C@H](CO)Cc3ccccc3)nn1)C2
3. C[n+]1ccc(-c2ccc(CO)cc2)cc1
4. CCOC(=O)[C@H](CC(C)C)NC(=O)CCC1CC(OC(=O)NCc2cccc3ccccc23)CC2(CCCC(COC(=O)NCC3CCCCC3)O2)O1 (some centres undefined)
5. COc1ccc(COC(=O)NN=C2C[C@@H](O)[C@@H](O)[C@@H]3[C@@H]4C(=O)N(c5cccc(Oc6ccccc6)c5)C(=O)[C@@H]4CC[C@@H]23)cc1
6. C[C@@H]1CC[C@H]2C(=O)O[C@@H](Cc3ccccc3)CN2[C@H]1c1ccc(Br)cc1

Reply |
1: -0.179; 2: -0.0165; 3: -0.117; 4: -0.0792; 5: -0.0165; 6: -0.118

Look at each molecule and report its composite z-score.
1. CC=CC1=C(CO)C(=O)[C@@H]2O[C@@H]2C1=O
2. Cn1c(=O)n2n(c1=O)[C@H]1[C@H](O)[C@@H]3O[C@@H]3C(=NOCc3ccccc3)[C@H]1CC2
3. CCOC(=O)NN=C1C[C@@H](O)[C@@H](O)[C@@H]2[C@@H]3C(=O)N(c4cccc(Oc5ccccc5)c4)C(=O)[C@@H]3CC[C@@H]12
4. CC(C)=CCCC(C)=CCON=C1C[C@@H](O)[C@@H](O)[C@@H]2[C@@H]3C(=O)N(C4CCCCC4)C(=O)[C@@H]3CC[C@@H]12
5. CCOC(=O)[C@H](CC(C)C)NC(=O)CCC1CC(OC(=O)NCc2cccc3ccccc23)CC2(CCCC(COC(=O)NCCc3ccc(Cl)cc3)O2)O1 (some centres undefined)
6. CC(C)=CCCC(C)=CCON=C1C[C@@H](O)[C@@H](O)[C@@H]2[C@@H]3C(=O)N(c4ccc(F)cc4F)C(=O)[C@@H]3CC[C@H]12

Reply |
[-0.145, -0.232, -0.0165, -0.128, -0.191, -0.124]

Look at each molecule and report its composite z-score.
1. O=C1CCCC(C2=CCCCC2=O)C1 (centres undefined)
2. COc1cccc([C@H]2Oc3ccc(OC)cc3C(=NO[C@@H]3O[C@H](COC(C)=O)[C@@H](OC(C)=O)[C@H](OC(C)=O)[C@H]3OC(C)=O)[C@@H]2O)c1
3. CC(C)CON=C1C[C@@H](O)[C@@H](O)[C@@H]2[C@@H]3C(=O)N(C4CCCCC4)C(=O)[C@@H]3CC[C@@H]12
4. COC(=O)CC=C[C@@H](C)[C@@H](C=NO[C@H](C)c1cn([C@@H]2COC[C@H]2O)nn1)NS(=O)(=O)c1ccc(C)cc1
5. C[C@@H](c1ccccc1)N1C(=O)[C@H]2[C@H]3[C@H](O)[C@H](O)CC(=NOCc4ccccc4)[C@H]3CC[C@H]2C1=O
6. CCOC(=O)[C@H](CC(C)C)NC(=O)CCC1CC(OC(=O)NCc2cccc3ccccc23)CC2(CCCC(COC(=O)NCCC(C)C)O2)O1 (some centres undefined)
7. Cc1ccc(S(=O)(=O)OC[C@H]2CN3[C@H](c4ccc(Br)cc4)[C@@H](C)CC[C@H]3C(=O)O2)cc1
8. CC(C)CON=C1[C@H]2CCn3c(=O)n(Cc4cc5c(cc4Cl)OCO5)c(=O)n3[C@H]2[C@H](O)[C@@H]2O[C@H]12

Reply |
1. -0.0548
2. 0.0206
3. -0.178
4. -0.144
5. -0.0635
6. -0.0529
7. -0.0462
8. -0.0758

Look at each molecule and report its composite z-score.
1. C=CC[C@@H]1C=C[C@H](ON=C2[C@H]3CCn4c(=O)n(-c5ccccc5)c(=O)n4[C@H]3[C@H](O)[C@@H]3O[C@H]23)[C@@H](CO)O1
2. CON=C(C)CCC(=O)OC[C@H]1O[C@H](c2ccccc2)C=C[C@@H]1Oc1ccc(OC)cc1

Reply |
[-0.147, 0.0257]
